pIC50: −log10 of the molar value.
pIC50 values recorded for CLK2 (h) (Homo sapiens, UniProt P49760)

Here is how some compounds turned out for pIC50.
[
  {
    "compound": "FC(F)(F)n1cc(-c2ccc3scc(-c4ccncc4)c3n2)cn1",
    "pIC50": "5.00 to 5.52"
  },
  {
    "compound": "Cc1cc2scc(-c3ccncc3)c2nc1-c1cnn(C)c1",
    "pIC50": "5.00 to 5.52"
  },
  {
    "compound": "Cn1cc(-c2ccc3scc(Nc4ccccc4)c3n2)cn1",
    "pIC50": "5.52 to 6.30"
  },
  {
    "compound": "Cn1cc(-c2ccc3scc(-c4ccnc(CN)c4)c3n2)cn1",
    "pIC50": "5.00 to 5.52"
  },
  {
    "compound": "Cn1cc(-c2ccc3scc(-c4cnn(Cc5ccccc5)c4)c3n2)cn1",
    "pIC50": "5.00 to 5.52"
  },
  {
    "compound": "c1ccc(-c2csc3ccc(-c4ccoc4)nc23)cc1",
    "pIC50": "5.00 to 5.52"
  },
  {
    "compound": "Cn1cc(-c2csc3ccc(Oc4ccccc4)nc23)cn1",
    "pIC50": "5.52 to 6.30"
  },
  {
    "compound": "Cn1cc(-c2cc(Cl)c3scc(-c4ccncc4)c3n2)cn1",
    "pIC50": "5.52 to 6.30"
  }
]

Asked: Find the measured pIC50 of Cn1cc(-c2ccc3scc(-c4ccccc4)c3n2)cn1 with CLK2 (h) (Homo sapiens, UniProt P49760) as test system.
Sequence (P49760 whole entry): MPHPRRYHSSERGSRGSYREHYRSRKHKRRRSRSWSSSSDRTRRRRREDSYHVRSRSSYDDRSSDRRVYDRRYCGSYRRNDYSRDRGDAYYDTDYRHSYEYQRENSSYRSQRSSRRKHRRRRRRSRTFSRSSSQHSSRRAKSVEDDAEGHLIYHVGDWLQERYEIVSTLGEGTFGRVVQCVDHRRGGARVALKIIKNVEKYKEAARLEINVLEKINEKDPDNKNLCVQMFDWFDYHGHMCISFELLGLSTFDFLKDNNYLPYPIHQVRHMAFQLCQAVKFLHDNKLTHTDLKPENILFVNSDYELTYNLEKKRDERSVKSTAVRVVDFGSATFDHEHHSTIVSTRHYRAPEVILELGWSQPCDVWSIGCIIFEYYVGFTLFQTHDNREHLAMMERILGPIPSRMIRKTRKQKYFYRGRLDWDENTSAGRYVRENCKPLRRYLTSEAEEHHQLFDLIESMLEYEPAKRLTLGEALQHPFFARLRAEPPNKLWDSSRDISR
Given back: 5.00 to 5.52

Asked: Find the measured pIC50 of Cn1cc(-c2ccc3scc(C(O)c4ccccc4)c3n2)cn1 (stereo not shown) with CLK2 (h) (Homo sapiens, UniProt P49760) as test system.
Given back: 5.52 to 6.30

Asked: Find the measured pIC50 of Cc1nsc(-c2csc3ccc(-c4cnn(C)c4)nc23)n1 with CLK2 (h) (Homo sapiens, UniProt P49760) as test system.
Given back: 5.52 to 6.30

Asked: Find the measured pIC50 of Cn1cc(-c2ccc3scc(-c4ccncc4F)c3n2)cn1 with CLK2 (h) (Homo sapiens, UniProt P49760) as test system.
Given back: 5.52 to 6.30

Asked: Find the measured pIC50 of Cn1cc(-c2ccc3scc(C4=CCNCC4)c3n2)cn1 with CLK2 (h) (Homo sapiens, UniProt P49760) as test system.
Given back: 5.00 to 5.52

====

IC50 values recorded for Haspin (h) (Homo sapiens, UniProt Q8TF76)

Here is how some compounds turned out for IC50.
[
  {
    "compound_smiles": "Fc1cc(-c2ccc3scc(-c4ccccc4)c3n2)cc(F)c1F",
    "system_name": "Haspin (h) (Homo sapiens, UniProt Q8TF76)",
    "result": "3 to 10 µM"
  },
  {
    "compound_smiles": "Cn1cc(-c2ccc3scc(-c4ccnc(CNC(=O)OC(C)(C)C)c4)c3n2)cn1",
    "system_name": "Haspin (h) (Homo sapiens, UniProt Q8TF76)",
    "result": "3 to 10 µM"
  },
  {
    "compound_smiles": "Cn1ccc(Sc2ccc3scc(-c4ccncc4)c3n2)n1",
    "system_name": "Haspin (h) (Homo sapiens, UniProt Q8TF76)",
    "result": "0.5 to 3 µM"
  }
]

Asked: Give the reported value of IC50 for this record: Cn1cc(-c2ccc3scc(-c4ccc5ncncc5c4)c3n2)cn1
Given back: 0.1 to 0.499 µM

Asked: Give the reported value of IC50 for this record: c1ccc(-c2csc3ccc(-c4cn[nH]c4)nc23)cc1
Given back: 0.1 to 0.499 µM

Asked: Give the reported value of IC50 for this record: c1ccc(-c2csc3ccc(-c4cnoc4)nc23)cc1
Given back: 3 to 10 µM

Asked: Give the reported value of IC50 for this record: Cn1cc(-c2ccc3scc(-c4ccncc4C#N)c3n2)cn1
Given back: 0.5 to 3 µM

Asked: Give the reported value of IC50 for this record: c1nc2ccc(-c3csc4ccc(Nc5cn[nH]c5)nc34)cn2n1
Given back: 0.1 to 0.499 µM

Asked: Give the reported value of IC50 for this record: Cn1cc(-c2ccc3scc(-c4ccncc4)c3n2)c(N)n1
Given back: 3 to 10 µM

====

# system_name: Haspin (h) (Homo sapiens, UniProt Q8TF76)
# Sequence (Q8TF76 1-798): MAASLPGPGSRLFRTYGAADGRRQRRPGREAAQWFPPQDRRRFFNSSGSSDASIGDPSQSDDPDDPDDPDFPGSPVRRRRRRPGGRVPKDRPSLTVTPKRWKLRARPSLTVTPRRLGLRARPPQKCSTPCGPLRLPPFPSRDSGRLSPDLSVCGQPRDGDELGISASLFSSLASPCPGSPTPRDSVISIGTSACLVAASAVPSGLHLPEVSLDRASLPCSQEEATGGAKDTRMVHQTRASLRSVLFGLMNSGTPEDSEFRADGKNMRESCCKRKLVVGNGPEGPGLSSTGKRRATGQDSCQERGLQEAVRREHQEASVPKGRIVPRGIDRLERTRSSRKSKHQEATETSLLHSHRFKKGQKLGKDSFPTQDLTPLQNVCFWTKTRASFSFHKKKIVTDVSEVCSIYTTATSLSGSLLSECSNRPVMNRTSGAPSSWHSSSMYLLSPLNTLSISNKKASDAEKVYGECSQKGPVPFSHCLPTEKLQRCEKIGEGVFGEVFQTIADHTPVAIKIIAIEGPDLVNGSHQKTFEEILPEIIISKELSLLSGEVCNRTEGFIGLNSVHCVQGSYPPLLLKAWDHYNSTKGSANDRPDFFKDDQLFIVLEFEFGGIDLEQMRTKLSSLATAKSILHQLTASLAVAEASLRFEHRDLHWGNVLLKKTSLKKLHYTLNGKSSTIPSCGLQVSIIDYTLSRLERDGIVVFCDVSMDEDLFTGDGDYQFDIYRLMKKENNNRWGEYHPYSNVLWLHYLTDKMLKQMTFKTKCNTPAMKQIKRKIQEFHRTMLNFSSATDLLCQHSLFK
observation_type: IC50

[
  {
    "compound": "Cn1cc(-c2ccc3scc(-c4ccnc(CN)c4)c3n2)cn1 [Preparative Example 28]",
    "system_name": "Haspin (h) (Homo sapiens, UniProt Q8TF76)",
    "result": "20 to 99 nM"
  }
]

// switching to the query compound
Asked: Give the reported value of IC50 for this record: Cc1cc(-c2csc3ccc(-c4cnn(C)c4)nc23)cc(C)n1 [Preparative Example 30]
Given back: 100 to 499 nM

====

# system_name: TAF1L(h) (Homo sapiens, UniProt Q8IZX4)
# Sequence (Q8IZX4 whole entry): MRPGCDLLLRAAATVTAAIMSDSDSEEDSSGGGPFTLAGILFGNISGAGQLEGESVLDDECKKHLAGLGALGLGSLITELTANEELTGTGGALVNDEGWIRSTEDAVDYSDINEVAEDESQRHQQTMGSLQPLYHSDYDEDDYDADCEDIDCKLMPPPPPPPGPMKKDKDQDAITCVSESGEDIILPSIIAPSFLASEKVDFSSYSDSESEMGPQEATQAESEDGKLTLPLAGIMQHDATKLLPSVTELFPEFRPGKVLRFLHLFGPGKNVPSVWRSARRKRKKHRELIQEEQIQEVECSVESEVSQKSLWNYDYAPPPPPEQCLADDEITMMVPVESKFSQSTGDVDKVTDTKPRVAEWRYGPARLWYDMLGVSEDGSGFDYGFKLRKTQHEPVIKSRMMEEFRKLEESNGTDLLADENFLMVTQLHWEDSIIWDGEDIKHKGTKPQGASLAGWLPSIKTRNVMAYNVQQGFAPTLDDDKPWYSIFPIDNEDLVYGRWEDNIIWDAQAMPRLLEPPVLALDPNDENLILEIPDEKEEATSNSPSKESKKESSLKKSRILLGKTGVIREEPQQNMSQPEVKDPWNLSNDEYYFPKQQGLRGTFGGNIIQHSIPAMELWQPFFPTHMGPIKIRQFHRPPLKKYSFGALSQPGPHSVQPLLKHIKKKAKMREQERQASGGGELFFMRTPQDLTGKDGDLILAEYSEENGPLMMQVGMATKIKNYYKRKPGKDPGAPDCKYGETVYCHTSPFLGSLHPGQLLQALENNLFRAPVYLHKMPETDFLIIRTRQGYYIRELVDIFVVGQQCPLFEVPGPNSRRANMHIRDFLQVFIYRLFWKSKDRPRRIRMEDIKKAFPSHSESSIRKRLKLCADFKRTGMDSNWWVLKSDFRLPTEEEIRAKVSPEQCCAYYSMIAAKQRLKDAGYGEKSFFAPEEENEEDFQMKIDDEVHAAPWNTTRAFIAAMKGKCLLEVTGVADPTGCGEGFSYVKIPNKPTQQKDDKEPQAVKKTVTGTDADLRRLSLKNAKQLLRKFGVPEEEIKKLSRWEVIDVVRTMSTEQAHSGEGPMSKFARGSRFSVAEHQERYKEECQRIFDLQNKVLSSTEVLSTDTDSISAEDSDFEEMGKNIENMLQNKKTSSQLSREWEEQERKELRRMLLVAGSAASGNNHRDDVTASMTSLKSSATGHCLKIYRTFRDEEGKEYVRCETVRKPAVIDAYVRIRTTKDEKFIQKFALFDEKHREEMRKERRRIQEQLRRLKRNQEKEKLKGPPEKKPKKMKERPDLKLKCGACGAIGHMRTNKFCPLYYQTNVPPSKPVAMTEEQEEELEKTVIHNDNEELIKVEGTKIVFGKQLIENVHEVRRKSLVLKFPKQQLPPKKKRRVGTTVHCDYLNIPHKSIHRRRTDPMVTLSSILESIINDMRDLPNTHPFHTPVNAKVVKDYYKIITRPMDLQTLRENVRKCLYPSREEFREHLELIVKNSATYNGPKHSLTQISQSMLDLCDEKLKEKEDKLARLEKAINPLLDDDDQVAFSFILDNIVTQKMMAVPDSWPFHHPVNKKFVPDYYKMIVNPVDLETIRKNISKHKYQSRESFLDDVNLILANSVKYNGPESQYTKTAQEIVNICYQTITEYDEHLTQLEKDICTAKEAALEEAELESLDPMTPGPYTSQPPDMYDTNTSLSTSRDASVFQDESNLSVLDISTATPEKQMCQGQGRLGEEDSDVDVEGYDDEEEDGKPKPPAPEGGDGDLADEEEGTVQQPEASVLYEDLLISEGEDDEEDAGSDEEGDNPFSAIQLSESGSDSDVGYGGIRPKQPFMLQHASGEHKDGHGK
pIC50: −log10 of the molar value.
observation_type: pIC50

Here is how some compounds turned out for pIC50.
[
  {
    "compound": "Cn1cc(-c2cc(Cl)c3scc(-c4ccncc4)c3n2)cn1",
    "pIC50": "6.30 to 7.00"
  },
  {
    "compound": "Cn1cc(-c2ccc3scc(-c4ccns4)c3n2)cn1",
    "pIC50": "7.00 to 7.70"
  },
  {
    "compound": "Cn1cc(-c2ccc3scc(-c4ccncc4F)c3n2)cn1",
    "pIC50": "6.30 to 7.00"
  },
  {
    "compound": "Cc1cnccc1-c1csc2ccc(-c3cnn(C)c3)nc12",
    "pIC50": "5.52 to 6.30"
  },
  {
    "compound": "Cc1nn(C)c(C)c1-c1ccc2scc(-c3ccncc3)c2n1",
    "pIC50": "5.52 to 6.30"
  },
  {
    "compound": "Cc1cc2scc(-c3ccncc3)c2nc1-c1cnn(C)c1",
    "pIC50": "5.52 to 6.30"
  },
  {
    "compound": "Cn1cc(-c2ccc3scc(-c4cnn(Cc5ccccc5)c4)c3n2)cn1",
    "pIC50": "6.30 to 7.00"
  },
  {
    "compound": "Cc1cc(-c2csc3ccc(-c4cnn(C)c4)nc23)ccn1",
    "pIC50": "6.30 to 7.00"
  }
]

// switching to the query compound
Asked: Find the measured pIC50 of Cn1cc(-c2ccc3scc(C(O)c4ccccc4)c3n2)cn1 (stereo not drawn) with TAF1L(h) (Homo sapiens, UniProt Q8IZX4) as test system.
Given back: 6.30 to 7.00

====

pIC50 listing for selected compounds.
# system_name: UniProt:Q8TF76
# Sequence (Q8TF76 1-798): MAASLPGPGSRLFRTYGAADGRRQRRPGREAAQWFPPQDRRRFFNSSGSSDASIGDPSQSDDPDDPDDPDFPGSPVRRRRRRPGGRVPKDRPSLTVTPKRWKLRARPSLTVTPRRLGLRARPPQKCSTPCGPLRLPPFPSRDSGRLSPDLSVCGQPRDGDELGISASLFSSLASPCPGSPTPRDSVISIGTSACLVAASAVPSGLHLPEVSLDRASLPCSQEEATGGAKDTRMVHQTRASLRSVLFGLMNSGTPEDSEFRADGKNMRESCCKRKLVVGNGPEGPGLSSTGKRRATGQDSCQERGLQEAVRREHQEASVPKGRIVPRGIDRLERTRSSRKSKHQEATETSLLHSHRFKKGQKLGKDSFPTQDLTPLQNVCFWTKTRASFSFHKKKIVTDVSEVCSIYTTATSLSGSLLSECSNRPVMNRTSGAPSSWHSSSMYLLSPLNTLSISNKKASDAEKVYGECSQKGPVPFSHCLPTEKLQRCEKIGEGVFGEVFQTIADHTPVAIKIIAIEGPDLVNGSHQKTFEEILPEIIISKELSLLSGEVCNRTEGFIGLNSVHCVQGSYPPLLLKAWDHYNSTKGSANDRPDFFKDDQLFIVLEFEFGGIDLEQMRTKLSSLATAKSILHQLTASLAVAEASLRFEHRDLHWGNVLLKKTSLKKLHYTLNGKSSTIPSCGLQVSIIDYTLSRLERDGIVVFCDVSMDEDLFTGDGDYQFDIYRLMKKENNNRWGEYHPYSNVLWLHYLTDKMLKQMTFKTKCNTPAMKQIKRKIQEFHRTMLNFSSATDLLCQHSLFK
pIC50: −log10 of the molar value.

[
  {
    "compound": "Cn1cc(-c2ccc3scc(-c4cc5ncccn5n4)c3n2)cn1",
    "pIC50": "6.30 to 7.00"
  },
  {
    "compound": "c1cncc(-c2ccc3scc(-c4ccc5ncnn5c4)c3n2)c1",
    "pIC50": "6.30 to 7.00"
  },
  {
    "compound": "c1ccc(Cn2cc(-c3ccc4scc(-c5ccncc5)c4n3)cn2)cc1",
    "pIC50": "6.30 to 7.00"
  }
]

Asked: Give the reported value of pIC50 for this record: Cc1cc(-c2ccn(C)n2)nc2c(-c3ccncc3)csc12
Given back: 6.30 to 7.00

Asked: Give the reported value of pIC50 for this record: Cn1cc(-c2ccc3scc(C(O)c4ccccc4)c3n2)cn1 (centres unmarked)
Given back: 5.00 to 5.52
